Molecular target: SERT (Homo sapiens, UniProt P31645)
Construct: expressed in transfected cells
Sequence (P31645 whole entry): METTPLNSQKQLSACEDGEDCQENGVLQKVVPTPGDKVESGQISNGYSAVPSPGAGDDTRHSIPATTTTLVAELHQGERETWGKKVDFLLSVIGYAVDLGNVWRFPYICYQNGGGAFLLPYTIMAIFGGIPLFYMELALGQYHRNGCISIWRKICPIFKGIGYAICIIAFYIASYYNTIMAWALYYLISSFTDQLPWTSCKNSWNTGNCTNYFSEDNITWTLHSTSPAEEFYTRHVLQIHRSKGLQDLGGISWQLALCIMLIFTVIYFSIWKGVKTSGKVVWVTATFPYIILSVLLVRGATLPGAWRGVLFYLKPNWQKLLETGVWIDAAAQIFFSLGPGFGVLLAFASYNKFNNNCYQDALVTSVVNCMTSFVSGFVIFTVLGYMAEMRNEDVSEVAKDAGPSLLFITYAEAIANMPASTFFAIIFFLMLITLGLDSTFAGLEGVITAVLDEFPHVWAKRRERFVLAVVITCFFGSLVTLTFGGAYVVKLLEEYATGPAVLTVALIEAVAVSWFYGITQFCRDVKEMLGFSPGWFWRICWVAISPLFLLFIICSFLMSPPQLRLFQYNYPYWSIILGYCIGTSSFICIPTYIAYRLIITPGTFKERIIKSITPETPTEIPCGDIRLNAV
Assay: Uptake-inhibition of [3H]5-HT in HEK293 cells stably expressing human SERT
Format: cell-based
Details: IC50 SERT, QSAR data matrix; unit inferred
VALUE_TYPE: IC50 (µM)
Enter your answer as a number in µM; do not include the unit.

Example entries begin here.
compound="Cc1ccc([C@H](O)[C@H](C)N)cc1 [Dihydro-(S,S)-4-MC]" value_type=IC50 reading=32.2
compound="Cc1ccc([C@@H](O)[C@@H](C)N)cc1 [Dihydro-(R,R)-4-MC]" value_type=IC50 reading=74.6
compound="Cc1ccc([C@H](O)[C@@H](C)N)cc1 [Dihydro-(S,R)-4-MC]" value_type=IC50 reading=178

Just so you know, measured IC50 for Cc1ccc([C@@H](O)[C@H](C)N)cc1 [Dihydro-(R,S)-4-MC] came out at 66.9
